# Internalization % TOP per entry
- System tested: human GLP1-R (Homo sapiens)
- Sequence (P43220 24-463): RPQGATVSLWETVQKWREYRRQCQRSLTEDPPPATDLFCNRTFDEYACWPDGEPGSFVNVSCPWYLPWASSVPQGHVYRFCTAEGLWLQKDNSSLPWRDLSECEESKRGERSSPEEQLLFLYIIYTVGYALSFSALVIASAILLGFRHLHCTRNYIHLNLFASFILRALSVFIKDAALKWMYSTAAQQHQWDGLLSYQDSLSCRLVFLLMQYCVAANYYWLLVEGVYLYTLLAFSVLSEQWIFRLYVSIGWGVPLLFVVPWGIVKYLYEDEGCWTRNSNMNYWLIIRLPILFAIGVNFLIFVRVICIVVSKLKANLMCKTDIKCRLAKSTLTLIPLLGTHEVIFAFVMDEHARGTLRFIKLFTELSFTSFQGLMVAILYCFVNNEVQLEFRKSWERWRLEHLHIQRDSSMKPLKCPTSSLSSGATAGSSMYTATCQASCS
- Assay remarks: GLP1-R internalization assay in HEK293 cells
- Type: cell-based
- Study conditions: normalized to maximum concentration of GLP-1 (100%)
Starred links: 1 amine or outer side, 2 acyl side, 3 side chain; linkers in the order of their positions; H or OH if unused. Non-standard residues stand in square brackets, D forms with d. Groups on a side chain read outwards from the residue. *: point of attachment. C20 diacid = O=C(O)CCCCCCCCCCCCCCCCCCC(=O)*; C18 diacid = O=C(O)CCCCCCCCCCCCCCCCC(=O)*; γGlu = O=C(O)[C@H](CCC(=O)[*:2])N[*:1]; αMeL = CC(C)C[C@](C)(N)C(=O)O; Orn = NCCC[C@H](N)C(=O)O; AEEA = NCCOCCOCC(=O)O; Aib = CC(C)(N)C(=O)O
Measure: Internalization % TOP (%)

[[record]]
substance = "H-Y[Aib]QGTFTSDFSK[αMeL]LDKK([AEEA-γGlu-C20 diacid])AQ[Aib]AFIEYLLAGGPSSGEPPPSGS-NH2 [Example 8]"
system_tested = "human GLP1-R (Homo sapiens)"
measure = "Internalization % TOP"
recorded_measurement = 74

[[record]]
substance = "H-Y[Aib]QGTFTSDFS[Orn][αMeL]LDKK([AEEA-γGlu-C18 diacid])AQ[Aib]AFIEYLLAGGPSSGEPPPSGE-NH2 [Example 97]"
system_tested = "human GLP1-R (Homo sapiens)"
measure = "Internalization % TOP"
recorded_measurement = 50.7

[[record]]
substance = "H-Y[Aib]QGTFTSDYSK[αMeL]LDKK([AEEA-γGlu-C18 diacid])AQ[Aib]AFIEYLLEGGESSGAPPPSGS-NH2 [Example 358]"
system_tested = "human GLP1-R (Homo sapiens)"
measure = "Internalization % TOP"
recorded_measurement = 83.1

[[record]]
substance = "H-Y[Aib]QGTFTSDFS[Orn][αMeL]LDKK([AEEA-γGlu-C18 diacid])AQ[Aib]AFIEYLIE[Aib]GESSGAPPPSGS-NH2 [Example 218]"
system_tested = "human GLP1-R (Homo sapiens)"
measure = "Internalization % TOP"
recorded_measurement = 35

[[record]]
substance = "H-Y[Aib]QGTFTSDFS[Orn][αMeL]LDKK([AEEA-γGlu-C18 diacid])AQ[Aib]AFIEWLLEGGTSSGAPPPSGS-NH2 [Example 176]"
system_tested = "human GLP1-R (Homo sapiens)"
measure = "Internalization % TOP"
recorded_measurement = 48

[[record]]
substance = "H-Y[Aib]QGTFTSDFS[Orn][αMeL]LDKK([AEEA-γGlu-C18 diacid])AQ[Aib]AFIEYLLAGGPSSGAPPPSGSE-NH2 [Example 90]"
system_tested = "human GLP1-R (Homo sapiens)"
measure = "Internalization % TOP"
recorded_measurement = 49.8


Value source: patent US20240270821A1
